Target System: cathepsin G (Homo sapiens, UniProt P08311)
Construct: purified cathepsin G (0.2 µg) from human neutrophils; purchased Calbiochem; host or cells: human neutrophils (natural source)
Sequence (P08311 21-244 limits assumed): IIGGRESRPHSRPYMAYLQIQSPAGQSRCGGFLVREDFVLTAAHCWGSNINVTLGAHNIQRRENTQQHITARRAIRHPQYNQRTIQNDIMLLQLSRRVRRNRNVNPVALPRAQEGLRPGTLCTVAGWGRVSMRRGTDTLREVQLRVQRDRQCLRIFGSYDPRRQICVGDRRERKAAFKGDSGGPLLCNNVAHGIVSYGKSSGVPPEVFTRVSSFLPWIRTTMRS
Method Description: Cathepsin G activity in a cell-free assay (Suc-AAPF-pNA substrate)
Assay type: biochemical
Details: residual activity at 10 µM; cell-free; mean ± SEM, 3–4 experiments; read-out: Cat. G Activity [% Control]
Experimental Readout: remaining activity at 10 µM (%)

Worked cases, remaining activity at 10 µM given:
[
  {
    "Molecule": "C[C@H]1[C@H](C)CC[C@]2(C)CC[C@]3(C)C(=CC(=O)[C@@H]4[C@@]5(C)CC[C@@H](OC(=O)CCCC(=O)O)[C@](C)(C(=O)O)[C@@H]5CC[C@]43C)[C@H]12",
    "Target System": "cathepsin G (Homo sapiens, UniProt P08311)",
    "Experimental Readout": "remaining activity at 10 µM",
    "Value Reported": 49.1
  },
  {
    "Molecule": "C=C(C)[C@@H]1CC[C@]2(C)CC[C@]3(C)[C@H](CC[C@@H]4[C@@]5(C)CC[C@@H](OC(C)=O)[C@](C)(C(=O)O)[C@@H]5CC[C@]43C)[C@@H]12",
    "Target System": "cathepsin G (Homo sapiens, UniProt P08311)",
    "Experimental Readout": "remaining activity at 10 µM",
    "Value Reported": 35.9
  },
  {
    "Molecule": "C[C@H]1[C@H](C)CC[C@]2(C)CC[C@]3(C)C(=C[C@H](O)[C@@H]4[C@@]5(C)CC[C@@H](O)[C@](C)(C(=O)O)[C@@H]5CC[C@]43C)[C@H]12 [compound 19, 11β-hydroxy-β-boswellic acid]",
    "Target System": "cathepsin G (Homo sapiens, UniProt P08311)",
    "Experimental Readout": "remaining activity at 10 µM",
    "Value Reported": 82.7
  }
]

[a] C=C(C)[C@@H]1CC[C@]2(C)[C@H](CC=C3[C@@H]4[C@@H](C)[C@H](C)CC[C@]4(C)CC[C@]32C)[C@@]1(C)CCC(=O)O
[b] C[C@H]1[C@H](C)CC[C@]2(C)CC[C@]3(C)C(=CC(=O)[C@@H]4[C@@]5(C)CC[C@@H](O)[C@](C)(C(=O)O)[C@@H]5CC[C@]43C)[C@H]12
Challenge: Lower remaining activity at 10 µM: a or b ? Write down the label of the entry you select.
Response given: b

====

Target System: 5-LO (Homo sapiens, UniProt P09917)
Sequence (P09917 whole entry): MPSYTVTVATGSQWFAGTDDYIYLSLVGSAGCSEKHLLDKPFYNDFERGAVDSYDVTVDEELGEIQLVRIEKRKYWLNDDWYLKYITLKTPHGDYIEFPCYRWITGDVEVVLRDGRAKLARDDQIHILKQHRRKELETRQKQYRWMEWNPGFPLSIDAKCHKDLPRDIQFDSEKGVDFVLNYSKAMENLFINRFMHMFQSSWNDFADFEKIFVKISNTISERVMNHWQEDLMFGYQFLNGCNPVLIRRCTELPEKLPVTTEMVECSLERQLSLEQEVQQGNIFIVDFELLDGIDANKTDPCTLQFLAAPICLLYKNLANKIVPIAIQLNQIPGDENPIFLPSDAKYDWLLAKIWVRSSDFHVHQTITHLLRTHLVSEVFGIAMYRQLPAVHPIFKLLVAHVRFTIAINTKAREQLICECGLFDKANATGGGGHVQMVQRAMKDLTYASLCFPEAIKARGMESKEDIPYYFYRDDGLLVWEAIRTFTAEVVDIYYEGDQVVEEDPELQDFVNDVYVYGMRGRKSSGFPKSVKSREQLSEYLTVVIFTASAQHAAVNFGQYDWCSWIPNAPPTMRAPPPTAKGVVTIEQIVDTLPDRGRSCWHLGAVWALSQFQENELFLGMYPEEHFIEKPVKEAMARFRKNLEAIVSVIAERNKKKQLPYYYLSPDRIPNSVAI
Method Description: 5-LO activity in a cell-free assay (isolated human recombinant 5-LO, 20 µM arachidonic acid)
Type: biochemical
Design: made in house; host or cells: Escherichia coli BL21 (pT3-5-LO plasmid)
Details: at 10 µM

[
  {
    "Molecule": "C=C(C)[C@@H]1CC[C@]2(C)[C@H](CC=C3[C@@H]4[C@@H](C)[C@H](C)CC[C@]4(C)CC[C@]32C)[C@@]1(C)CCC(=O)O [compound 5]",
    "inhibition of 5-LO activity, cell-free": "failed in this respect"
  },
  {
    "Molecule": "CC(C)[C@@H]1CC[C@]2(C)[C@H](CC=C3[C@@H]4[C@@H](C)[C@H](C)CC[C@]4(C)CC[C@]32C)[C@@]1(C)CCC(=O)O [compound 6]",
    "inhibition of 5-LO activity, cell-free": "failed in this respect"
  }
]
